Test system: Fibroblast
PROTOCOL_TEXT: Multiplex assay against human fibroblast
Format: toxicity, cell-based
MEASUREMENT_CONDITIONS: 48 h, 1 µM, compound concentration 1 uM, replicate 2
The following molecules are listed with their measured Total Cell Count values.
RECORDED_ENDPOINT: Total Cell Count

[[record]]
compound_structure = "CC(C)c1cc(Nc2nc(N3CCC[C@H](N)C3)ncc2C(N)=O)cc(C(C)C)n1"
recorded_measurement = 204

[[record]]
compound_structure = "N#CCNC(=O)c1ccc(-c2ccnc(Nc3ccc(N4CCOCC4)cc3)n2)cc1"
recorded_measurement = 117

[[record]]
compound_structure = "Cc1ccc(S(=O)(=O)NC2c3ccccc3Oc3ccccc32)cc1"
recorded_measurement = 68

[[record]]
compound_structure = "N#Cc1cccc(C(=O)Nc2cc(-c3ccccc3)nn2-c2ccccc2)c1"
recorded_measurement = 112

[[record]]
compound_structure = "C=CC(=O)Nc1cc(-n2c(=O)ccc3cnc4ccc(-c5ccc(NS(C)(=O)=O)cc5)cc4c32)ccc1C"
recorded_measurement = 72

